experimental.target: LK35.2-hPD-L1 cells / PE-labeled PD-1-Ig (Homo sapiens, UniProt Q9NZQ7)
Construct: expressed in transfected cells; host or cells: LK35.2 mouse B cell line
Sequence (Q9NZQ7 19-290): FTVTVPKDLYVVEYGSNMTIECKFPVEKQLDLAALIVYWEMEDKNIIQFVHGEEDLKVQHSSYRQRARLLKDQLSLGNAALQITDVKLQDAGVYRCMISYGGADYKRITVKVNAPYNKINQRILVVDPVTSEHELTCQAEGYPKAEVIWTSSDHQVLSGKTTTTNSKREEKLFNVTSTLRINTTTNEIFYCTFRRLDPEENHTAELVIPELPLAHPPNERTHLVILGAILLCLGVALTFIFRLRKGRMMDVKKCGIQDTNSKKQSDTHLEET
protocol.details: LK35.2-hPD-L1 cell binding high-content screening assay
Type: cell-based
condition.info: cluster symbol; cell line of CBA not given (LK35.2-hPD-L1 or 293T-hPD-L1); read-out: CBA IC50 cluster
Positions of bridges follow the written chain, without caps; N, C: chain ends. Non-standard residues stand in square brackets, D forms with d. Residues, ends and D or L forms follow the SMILES beside them. ξ: configuration not given here. Phe(4-CF3) = N[C@@H](Cc1ccc(C(F)(F)F)cc1)C(=O)O; cisHyp = O=C(O)[C@@H]1C[C@H](O)CN1; NMeF = CN[C@@H](Cc1ccccc1)C(=O)O; dNMeNle = CCCC[C@@H](NC)C(=O)O; NMeNle = CCCC[C@H](NC)C(=O)O; Orn = NCCC[C@H](N)C(=O)O; dDap = NC[C@@H](N)C(=O)O; Dab = NCC[C@H](N)C(=O)O; Dap = NC[C@H](N)C(=O)O; ξP = O=C(O)C1CCCN1; Sar = CNCC(=O)O
measured.attribute: IC50

Past entries and their recorded results:
1. CCCC[C@H]1C(=O)N(C)[C@@H](CCCC)C(=O)N[C@@H](C)C(=O)N[C@H](C(=O)NCC(N)=O)CSCC(=O)N[C@@H](Cc2ccc(O)cc2)C(=O)N2CCC[C@H]2C(=O)N[C@@H](CC(=O)O)C(=O)N2CCC[C@H]2C(=O)N[C@@H](CN)C(=O)N[C@@H](CC(C)C)C(=O)N2C[C@@H](O)C[C@H]2C(=O)N[C@@H](Cc2c[nH]c3ccccc23)C(=O)N[C@@H](CCN)C(=O)N[C@@H](Cc2c[nH]c3ccccc23)C(=O)N1C [Example 1150] ({CH2CO}-YPDP[Dap]L[cisHyp]W[Dab]W[NMeNle][NMeNle]ACG-NH2; thioether N-14)
0.158 to 4.71 nM
2. CCCC[C@H]1C(=O)N(C)[C@@H](CCCC)C(=O)N[C@@H](C)C(=O)N[C@H](C(=O)NCC(=O)O)CSCC(=O)N[C@@H](Cc2ccc(O)cc2)C(=O)N(C)[C@@H](C)C(=O)N[C@@H](CC(N)=O)C(=O)N2CCC[C@H]2C(=O)N[C@@H](Cc2cnc[nH]2)C(=O)N[C@@H](CC(C)C)C(=O)N[C@@H](CCCCN)C(=O)N[C@@H](Cc2c[nH]c3ccccc23)C(=O)N[C@@H](CO)C(=O)N[C@@H](Cc2c[nH]c3ccccc23)C(=O)N1C [Example 1238]
4.78 to 72.9 nM

Problem: Output IC50 of CCCC[C@H]1C(=O)N(C)CC(=O)N[C@@H](CC(=O)O)C(=O)N[C@@H](C(C)C)C(=O)N(C)[C@@H](Cc2ccccc2)C(=O)N[C@@H](Cc2ccc(O)cc2)C(=O)N(C)CC(=O)N[C@@H](Cc2c[nH]c3ccccc23)C(=O)N[C@@H](Cc2ccc(C(F)(F)F)cc2)C(=O)N[C@@H](CC(C)C)C(=O)N[C@H](C(=O)NCC(N)=O)CSCC(=O)N[C@@H](Cc2ccccc2)C(=O)N(C)[C@@H](Cc2ccccc2)C(=O)N1C [Example 3138] ({CH2CO}-F[NMeF][NMeNle][Sar]DV[NMeF]Y[Sar]W[Phe(4-CF3)]LCG-NH2; thioether N-13)
Solution: > 74.3 nM

Problem: Output IC50 of CCCC[C@@H]1C(=O)N(C)[C@H](CCCC)C(=O)N[C@@H](CCCN)C(=O)N[C@@H](C(=O)NCC(N)=O)CSCC(=O)N[C@@H](Cc2ccc(O)cc2)C(=O)N2CCCC2C(=O)N[C@H](CC(=O)O)C(=O)N2CCC[C@H]2C(=O)N[C@H](CN)C(=O)N[C@@H](CCC(=O)O)C(=O)N2CCCC2C(=O)N[C@H](Cc2c[nH]c3ccccc23)C(=O)N[C@@H](CCN)C(=O)N[C@@H](Cc2c[nH]c3ccccc23)C(=O)N1C (stereo partly shown) [Example 1214] ({CH2CO}-Y[ξP][dD]P[dDap]E[ξP][dW][Dab]W[dNMeNle][dNMeNle][Orn][dC]G-NH2; thioether N-14)
Solution: 4.78 to 72.9 nM

----------
pIC50 values by entry
experimental.target: LK35.2-hPD-L1 cells / PE-labeled PD-1-Ig (Homo sapiens)
Construct: expressed in transfected cells; host or cells: LK35.2 mouse B cell line
protocol.details: LK35.2-hPD-L1 cell binding high-content screening assay
Assay type: cell-based
condition.info: cell binding assay, cell line not given; cluster symbol; read-out: CBA IC50 cluster
pIC50: −log10 of the molar value. Positions of bridges follow the written chain, without caps; N, C: chain ends. Non-standard residues stand in square brackets, D forms with d. Residues, ends and D or L forms follow the SMILES beside them. ξ: configuration not given here. Bip = N[C@@H](Cc1ccc(-c2ccccc2)cc1)C(=O)O; Hyp = O=C(O)[C@@H]1C[C@@H](O)CN1; NMeF = CN[C@@H](Cc1ccccc1)C(=O)O; NMeNle = CCCC[C@H](NC)C(=O)O; NMeM = CN[C@@H](CCSC)C(=O)O; NMeA = CN[C@@H](C)C(=O)O; Orn = NCCC[C@H](N)C(=O)O; Dab = NCC[C@H](N)C(=O)O; ξC = NC(CS)C(=O)O; Sar = CNCC(=O)O

Problem: Output pIC50 of CCCC[C@H]1C(=O)N(C)[C@@H](CCCC)C(=O)N[C@@H](CCCNC(=N)N)C(=O)N[C@H](C(=O)NCC(N)=O)CSCC(=O)N[C@@H](Cc2ccccc2)C(=O)N(C)[C@@H](C)C(=O)N[C@@H](CC(N)=O)C(=O)N2CCC[C@H]2C(=O)N[C@@H](Cc2cnc[nH]2)C(=O)N[C@@H](CCC(N)=O)C(=O)N(C)CC(=O)N[C@@H](Cc2c[nH]c3ccccc23)C(=O)N[C@@H](CO)C(=O)N[C@@H](Cc2c[nH]c3ccccc23)C(=O)N1C [Example 6006] ({CH2CO}-F[NMeA]NPHQ[Sar]WSW[NMeNle][NMeNle]RCG-NH2; thioether N-14)
Solution: 7.14 to 8.32

Problem: Output pIC50 of CCCC[C@H]1C(=O)N(C)[C@@H](CCCC)C(=O)N[C@@H](CCC(=O)O)C(=O)N[C@H](C(=O)NCC(N)=O)CSCC(=O)N[C@@H](Cc2ccc(O)cc2)C(=O)N(C)[C@@H](C)C(=O)N[C@@H](CCN)C(=O)N2CCC[C@H]2C(=O)N[C@@H](CO)C(=O)N[C@@H](CCC(=O)O)C(=O)N2C[C@H](O)C[C@H]2C(=O)N[C@@H](Cc2c[nH]c3ccccc23)C(=O)N[C@@H](CCCCN)C(=O)N[C@@H](Cc2c[nH]c3ccccc23)C(=O)N1C [Example 5085] ({CH2CO}-Y[NMeA][Dab]PSE[Hyp]WKW[NMeNle][NMeNle]ECG-NH2; thioether N-14)
Solution: 8.33 to 9.80

Problem: Output pIC50 of CCCC[C@H]1C(=O)N[C@@H](CCCNC(=N)N)C(=O)NC(C(=O)NCC(N)=O)CSCC(=O)N[C@@H](Cc2ccc(O)cc2)C(=O)N(C)[C@@H](C)C(=O)N[C@@H](CC(N)=O)C(=O)N2CCC[C@H]2C(=O)N[C@@H](Cc2cnc[nH]2)C(=O)N[C@@H](CO)C(=O)N2CCC[C@H]2C(=O)N[C@@H](Cc2c[nH]c3ccccc23)C(=O)N[C@@H](CO)C(=O)N[C@@H](Cc2c[nH]c3ccccc23)C(=O)N(C)[C@@H](CCSC)C(=O)N1C (stereo partly shown) [Example 9109] ({CH2CO}-Y[NMeA]NPHSPWSW[NMeM][NMeNle]R[ξC]G-NH2; thioether N-14)
Solution: 7.14 to 8.32

Problem: Output pIC50 of CCCC[C@H]1C(=O)N(C)CC(=O)N[C@@H](CC(N)=O)C(=O)N[C@@H](C(C)C)C(=O)N(C)[C@@H](Cc2ccccc2)C(=O)N[C@@H](Cc2ccc(O)cc2)C(=O)N(C)CC(=O)N[C@@H](Cc2c[nH]c3ccccc23)C(=O)N[C@@H](Cc2ccc(O)cc2)C(=O)N[C@@H](CCCN)C(=O)N[C@H](C(=O)NCC(N)=O)CSCC(=O)N[C@@H](Cc2ccccc2)C(=O)N[C@@H](Cc2ccc(-c3ccccc3)cc2)C(=O)N1C [Example 3611] ({CH2CO}-F[Bip][NMeNle][Sar]NV[NMeF]Y[Sar]WY[Orn]CG-NH2; thioether N-13)
Solution: < 7.13
